The values you see were collected from patent US7375136B2.

Molecular target: NR1-1a/NR2B receptors (Homo sapiens, UniProt Q05586+Q13224)
Sequence (Q13224 27-1484, other chains not shown): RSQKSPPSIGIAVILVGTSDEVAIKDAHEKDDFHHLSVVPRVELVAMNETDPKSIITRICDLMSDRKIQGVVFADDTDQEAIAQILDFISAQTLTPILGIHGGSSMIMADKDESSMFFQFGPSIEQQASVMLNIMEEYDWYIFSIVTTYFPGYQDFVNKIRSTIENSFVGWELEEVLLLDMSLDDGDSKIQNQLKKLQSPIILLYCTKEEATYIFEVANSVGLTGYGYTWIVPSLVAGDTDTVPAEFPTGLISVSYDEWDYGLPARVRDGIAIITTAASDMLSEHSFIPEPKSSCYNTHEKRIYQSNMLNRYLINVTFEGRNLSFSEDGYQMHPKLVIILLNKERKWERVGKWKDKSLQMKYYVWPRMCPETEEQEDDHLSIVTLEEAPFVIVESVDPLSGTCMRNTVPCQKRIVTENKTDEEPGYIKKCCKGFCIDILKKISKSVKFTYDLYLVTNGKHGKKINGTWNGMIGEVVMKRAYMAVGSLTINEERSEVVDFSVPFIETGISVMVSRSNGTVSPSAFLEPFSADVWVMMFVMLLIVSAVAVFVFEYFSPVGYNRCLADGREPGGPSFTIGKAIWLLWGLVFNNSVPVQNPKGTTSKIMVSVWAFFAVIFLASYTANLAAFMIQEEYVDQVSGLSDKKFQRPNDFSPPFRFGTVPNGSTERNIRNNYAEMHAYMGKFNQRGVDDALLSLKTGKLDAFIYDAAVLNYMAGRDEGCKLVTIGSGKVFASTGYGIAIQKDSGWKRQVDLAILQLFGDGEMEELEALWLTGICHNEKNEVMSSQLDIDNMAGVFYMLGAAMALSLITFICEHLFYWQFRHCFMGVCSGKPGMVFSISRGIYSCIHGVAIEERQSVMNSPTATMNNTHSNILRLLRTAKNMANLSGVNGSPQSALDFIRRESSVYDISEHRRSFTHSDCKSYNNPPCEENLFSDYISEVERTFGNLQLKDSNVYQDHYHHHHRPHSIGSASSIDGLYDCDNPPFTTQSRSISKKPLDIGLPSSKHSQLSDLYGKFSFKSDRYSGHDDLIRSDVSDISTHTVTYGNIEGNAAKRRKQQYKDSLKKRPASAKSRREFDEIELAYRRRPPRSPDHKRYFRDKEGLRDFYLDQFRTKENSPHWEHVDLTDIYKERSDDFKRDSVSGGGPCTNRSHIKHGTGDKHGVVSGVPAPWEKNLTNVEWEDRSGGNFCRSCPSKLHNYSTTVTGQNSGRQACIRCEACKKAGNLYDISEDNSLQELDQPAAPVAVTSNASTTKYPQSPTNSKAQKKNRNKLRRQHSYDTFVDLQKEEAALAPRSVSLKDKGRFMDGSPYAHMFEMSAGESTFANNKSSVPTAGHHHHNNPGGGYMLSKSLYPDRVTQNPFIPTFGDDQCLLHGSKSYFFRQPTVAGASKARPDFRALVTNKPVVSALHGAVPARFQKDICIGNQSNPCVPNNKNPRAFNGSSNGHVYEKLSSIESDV
Experiment: Two electrode voltage clamp of Xenopus oocytes expressing NR1-1a and NR2B NMDA receptor subunits; inhibition of glutamate/glycine current at pH 6.9 and 7.6
Assay type: cell-based
Conditions: Table A; IC50 at pH 7.6/IC50 at pH 6.9
VALUE_KIND: Fold increase in potency between pH 7.6 and 6.9
One number for each entry.

Some compounds with recorded Fold increase in potency between pH 7.6 and 6.9:
- COMPOUND: "CCCN(CCc1ccc(Cl)c(Cl)c1)C[C@H](O)COc1ccc(NS(C)(=O)=O)cc1 [93-6 (S)]"
  OBSERVED_MEASUREMENT: 6.54
- COMPOUND: "O=S(=O)(Nc1ccc(OCC(O)CNCCc2ccc(Cl)c(Cl)c2)cc1)c1ccccc1 [93-29 (S)]"
  OBSERVED_MEASUREMENT: 18.0

Can you give me Fold increase in potency between pH 7.6 and 6.9 for all of these, one by one?
1. CN(CCc1ccc(Cl)c(Cl)c1)C[C@H](O)COc1ccc(NS(C)(=O)=O)cc1 [93-2 (S)]
2. CCCCN(CCc1ccc(Cl)c(Cl)c1)C[C@H](O)COc1ccc(NS(C)(=O)=O)cc1 [93-31 (S)]
3. CS(=O)(=O)Nc1ccc(OC[C@@H](O)CN(CCO)CCc2ccc(Cl)c(Cl)c2)cc1 [93-8 (S)]
4. CC(=O)OC(COc1ccc(NS(C)(=O)=O)cc1)CN(CCc1ccc(Cl)c(Cl)c1)C(C)=O [93-28 (S)]
5. CS(=O)(=O)Nc1ccc(OC[C@@H](O)CN(CCc2ccc(Cl)c(Cl)c2)Cc2ccccc2)cc1 [93-30 (S)]
6. CCN(CCc1ccc(Cl)c(Cl)c1)C[C@H](O)COc1ccc(NS(C)(=O)=O)cc1 [93-5 (S)]

[out]
5.87
51.2
11.3
11.1
16.8
8.00
